Catalogue of Post-emergence effect at 20 g/ha against AMARE in % readings, one per entry.
Test system: AMARE (Amaranthus retroflexus)
Test: Post-emergence herbicidal action against AMARE
Type: in vivo
Details: 20 g/ha, visual assessment after about 3 weeks
REPORTED_ENDPOINT: Post-emergence effect at 20 g/ha against AMARE in % (%)

SMI | READING_UNIT | QUANTITATIVE_READOUT
CSc1c(OC(F)F)ccc(C(=O)Nc2nnco2)c1Cl | % | 100
CS(=O)(=O)c1c(OC(F)(F)F)ccc(C(=O)Nc2nnco2)c1Cl | % | 90
CS(=O)(=O)c1c(OC(F)F)ccc(C(=O)Nc2nnco2)c1Cl | % | 100
